// provenance: patent US20230330234A1

- assay.procedure: Solubility in water
- experimental.parameters: Solubility in water
recorded.metric: solubility (µg/mL)

CN(C)C1CCN(C(=O)c2ccc(NC(=O)Nc3ccc(-c4nc(N5CCOCC5)nc(N5CCOCC5)n4)cc3)cc2)CC1 [Gedatolisib] ... 40

I = CCN1[C@@H](C(=O)NC23CCC(C(=O)O)(CC2)CC3)[C@H](c2cccc(Cl)c2F)[C@]2(C(=O)Nc3cc(Cl)ccc32)C12CCCCC2 [APG-115]
II = Cn1nccc1Nc1nccc(-c2ccn([C@H](CO)c3ccc(Cl)c(F)c3)c(=O)c2)n1 [Ravoxertinib]
III = COc1cc2ncnc(Nc3ccc(F)c(Cl)c3)c2cc1NC(=O)/C=C/CN1CCCCC1 [Dacomitinib]
Query block: Put the items in order so that reported solubility rises from first to last. Answer format: the labels, ordered as requested.
Result block: I, II, III
(I: 2 µg/mL, II: 4 µg/mL, III: 9 µg/mL)
